Data provenance is patent US20040006042A1.

Antifol + LV overview
System: P388/ADR cells
Assay: Combination of antifolates with FU and LV on P388/ADR proliferation
Format: cell-based, murine
Conditions: P388/ADR; antifolate 1 nM 24 hours, LV 10 μM final 4.5 hours
Counter-ions that a name gives are not always drawn.

Record excerpt, results attached:
Entry under review: Cc1nc(N)nc(N)c1N1CCN(c2ccc(C(=O)NN)cc2)CC1 . Reported Antifol + LV?
80% of control

Entry under review: Cc1nc(N)nc(N)c1N1CCN(c2ccc(/C=N/OCCN)cc2)CC1 [Example 12, dihydrochloride] . Reported Antifol + LV?
65% of control

Entry under review: Cc1nc(N)nc(N)c1N1CCN(c2ccc(C(=O)O)cc2)CC1 . Reported Antifol + LV?
70% of control

Attention now turns to another entry.
Entry under review: CCOC(=O)CCC(NC(=O)c1ccc(N2CCN(c3c(N)nc(N)nc3CC)CC2)cc1)C(=O)OCC (stereo not shown) . Reported Antifol + LV?
80% of control
